Can you tell me IC50 for the items I'm about to list?
molecular target: UniProtKB Q14832; test: [35S]GTPγS binding test, mGluR3; format: biochemical; settings: inhibition of glutamate (1 μM)-stimulated [35S]GTPγS specific binding, CHO cell membranes
Sequence (Q14832 23-879): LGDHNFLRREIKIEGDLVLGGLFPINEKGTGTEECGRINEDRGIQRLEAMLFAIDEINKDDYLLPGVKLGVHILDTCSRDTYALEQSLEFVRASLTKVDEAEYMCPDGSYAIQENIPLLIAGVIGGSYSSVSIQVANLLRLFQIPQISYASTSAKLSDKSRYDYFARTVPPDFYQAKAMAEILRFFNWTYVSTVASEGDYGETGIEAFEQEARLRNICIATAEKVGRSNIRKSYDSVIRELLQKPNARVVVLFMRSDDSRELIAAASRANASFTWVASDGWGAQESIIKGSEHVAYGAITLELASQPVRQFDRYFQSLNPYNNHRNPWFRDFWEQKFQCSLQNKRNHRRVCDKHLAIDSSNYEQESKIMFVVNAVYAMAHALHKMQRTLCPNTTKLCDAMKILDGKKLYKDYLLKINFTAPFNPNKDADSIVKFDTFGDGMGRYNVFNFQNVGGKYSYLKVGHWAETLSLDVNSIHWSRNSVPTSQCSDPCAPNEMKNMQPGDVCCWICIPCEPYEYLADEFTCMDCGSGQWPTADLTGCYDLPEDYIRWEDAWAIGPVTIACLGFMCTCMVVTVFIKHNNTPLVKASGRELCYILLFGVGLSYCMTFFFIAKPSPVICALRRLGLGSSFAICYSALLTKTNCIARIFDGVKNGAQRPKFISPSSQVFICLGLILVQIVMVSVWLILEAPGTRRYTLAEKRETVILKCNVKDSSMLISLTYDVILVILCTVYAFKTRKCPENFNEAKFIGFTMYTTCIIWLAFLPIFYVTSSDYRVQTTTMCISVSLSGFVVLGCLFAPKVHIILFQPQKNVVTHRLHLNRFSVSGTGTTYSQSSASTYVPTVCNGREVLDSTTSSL
Entry format: amount then unit.

Request: Please supply the value of reported IC50 for the item N[C@]1(C(=O)O)[C@H]2[C@@H](C[C@H]1OCc1ccc(F)c(F)c1)[C@]2(F)C(=O)O
Result: 14.8 nM

Request: Please supply the value of reported IC50 for the item N[C@]1(C(=O)O)[C@H]2[C@@H](C[C@H]1OCc1cc[nH]c(=O)c1)[C@]2(F)C(=O)O
Result: 4.35 nM

Request: Please supply the value of reported IC50 for the item N[C@]1(C(=O)O)[C@H]2[C@@H](C[C@H]1OCc1cccc(F)c1)[C@]2(F)C(=O)O
Result: 75.5 nM

====

experiment: Stability test in solution (pH 1.2 and pH 6.5); format: physicochemical; details: hydrochloric acid solution pH 1.2, 37° C., 1 hour
Structures can show the parent of a compound that is named as a salt.
assay-metric: Compound's percent residue (%) pH 1.2

Request: Please supply the value of reported Compound's percent residue (%) pH 1.2 for the item C[C@@H](OC(=O)C12CC3CC(CC(C3)C1)C2)OC(=O)[C@@]1(N)[C@H]2[C@@H](C[C@H]1OCc1ccc(F)c(F)c1)[C@]2(F)C(=O)O
Result: 96%

Request: Please supply the value of reported Compound's percent residue (%) pH 1.2 for the item CCCO[C@@H]1C[C@@H]2[C@H]([C@]1(N)C(=O)OC(C)OC(=O)O[C@H]1C[C@@H](C)CC[C@@H]1C(C)C)[C@@]2(F)C(=O)O (single isomer, unassigned)
Result: 100%

Request: Please supply the value of reported Compound's percent residue (%) pH 1.2 for the item CC(C)(C)C(=O)OCOC(=O)[C@@]1(N)[C@H]2[C@@H](C[C@H]1OCc1ccc(F)cc1)[C@]2(F)C(=O)O
Result: 100%

Request: Please supply the value of reported Compound's percent residue (%) pH 1.2 for the item N[C@]1(C(=O)OCOC(=O)C23CC4CC(CC(C4)C2)C3)[C@H]2[C@@H](C[C@H]1OCc1ccc(F)c(F)c1)[C@]2(F)C(=O)O
Result: 101%

Request: Please supply the value of reported Compound's percent residue (%) pH 1.2 for the item CC(OC(=O)OC1CCCCC1)OC(=O)[C@@]1(N)[C@H]2[C@@H](C[C@H]1OCc1ccc(F)cc1)[C@]2(F)C(=O)O (some centres unmarked)
Result: 100%

Request: Please supply the value of reported Compound's percent residue (%) pH 1.2 for the item C[C@H](OC(=O)C12CC3CC(CC(C3)C1)C2)OC(=O)[C@@]1(N)[C@H]2[C@@H](C[C@H]1OCc1ccc(F)cc1)[C@]2(F)C(=O)O
Result: 93%

Request: Please supply the value of reported Compound's percent residue (%) pH 1.2 for the item C[C@@H](OC(=O)C12CC3CC(CC(C3)C1)C2)OC(=O)[C@@]1(N)[C@H]2[C@@H](C[C@H]1OCc1ccc(F)cc1)[C@@H]2C(=O)O
Result: 97%

Request: Please supply the value of reported Compound's percent residue (%) pH 1.2 for the item C[C@H](OC(=O)C12CC3CC(CC(C3)C1)C2)OC(=O)[C@@]1(N)[C@H]2[C@@H](C[C@H]1OCc1ccc(F)c(F)c1)[C@]2(F)C(=O)O
Result: 104%

Request: Please supply the value of reported Compound's percent residue (%) pH 1.2 for the item CC(C)[C@@H]1CC[C@@H](C)C[C@H]1OC(=O)O[C@@H](C)OC(=O)[C@@]1(N)[C@H]2[C@@H](C[C@H]1OCc1ccc(F)c(F)c1)[C@]2(F)C(=O)O
Result: 115%

Request: Please supply the value of reported Compound's percent residue (%) pH 1.2 for the item CC(C)[C@H](N)C(=O)OCOC(=O)[C@@]1(N)[C@H]2[C@@H](C[C@H]1OCc1ccc(F)cc1)[C@]2(F)C(=O)O [Example 6, dihydrochloride]
Result: 99%

Request: Please supply the value of reported Compound's percent residue (%) pH 1.2 for the item CC(OC(=O)O[C@@H]1C[C@@H]2CC[C@@]1(C)C2(C)C)OC(=O)[C@@]1(N)[C@H]2[C@@H](C[C@H]1OCc1ccc(F)cc1)[C@]2(F)C(=O)O (some centres unmarked)
Result: 106%

// provenance: patent US10689327B2
